Reported IC50 values are given for each entry in this list.
Target Or Test System: human EAAT2 (Homo sapiens, UniProt P43004)
Construct: expressed in transfected cells
Procedure Details: [3H]-D-aspartate uptake assay at HEK293 cells stably expressing human EAAT2
Format: cell-based
Test Parameters: D-aspartate uptake, HEK293 cells stably expressing human EAAT2; analogs 3.1-3.12 (Table 2); read-out: EAAT2 IC50

Answered examples (3):
# Compound, IC50
records = [
    ("O=C(C1CC2CCC1C2)N1CCN(c2cccc(Cl)c2)CC1 (racemic) [(±)-endo-exo-3.7]", "~300 µM"),
    ("O=C(C1CC2CCC1C2)N1CCN(c2ccccc2)CC1 (racemic) [(±)-endo-exo-3.1]", "> 300 µM"),
    ("O=C(C1CC2CCC1C2)N1CCN(c2cccc(O)c2)CC1 (racemic) [(±)-endo-exo-3.8]", "> 300 µM"),
]

// next entry
Query block: Please list IC50 recorded for the compound O=C(C1CC2CCC1C2)N1CCN(c2ccccc2C(F)(F)F)CC1 (racemic) [(±)-endo-exo-3.5]
Result block: > 300 µM

* * *

Target Or Test System: human EAAT1 (Homo sapiens, UniProt P43003)
Construct: expressed in transfected cells
Sequence (P43003 whole entry): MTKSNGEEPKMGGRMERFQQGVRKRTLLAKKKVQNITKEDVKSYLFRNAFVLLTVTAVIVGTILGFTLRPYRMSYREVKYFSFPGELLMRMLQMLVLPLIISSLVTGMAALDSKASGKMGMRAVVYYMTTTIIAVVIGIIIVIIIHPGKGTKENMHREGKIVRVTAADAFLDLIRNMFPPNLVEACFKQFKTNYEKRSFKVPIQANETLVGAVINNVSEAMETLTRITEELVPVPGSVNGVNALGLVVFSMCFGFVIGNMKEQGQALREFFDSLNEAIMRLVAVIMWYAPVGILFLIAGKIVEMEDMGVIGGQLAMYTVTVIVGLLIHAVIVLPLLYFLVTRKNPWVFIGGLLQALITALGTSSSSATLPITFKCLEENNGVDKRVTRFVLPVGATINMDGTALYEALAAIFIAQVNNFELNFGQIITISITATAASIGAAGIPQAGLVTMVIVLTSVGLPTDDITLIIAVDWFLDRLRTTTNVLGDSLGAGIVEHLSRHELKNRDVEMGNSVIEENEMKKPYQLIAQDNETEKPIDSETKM
Procedure Details: [3H]-D-aspartate uptake assay at HEK293 cells stably expressing human EAAT1
Format: cell-based
Test Parameters: D-aspartate uptake, HEK293 cells stably expressing human EAAT1; analogs 3.1-3.12 (Table 2); read-out: EAAT1 IC50
pIC50: −log10 of the molar value.
Endpoint: pIC50

Below: 2 compounds and their reported pIC50.
# Compound, pIC50
measured = [
    ("O=C(C1CC2CCC1C2)N1CCN(c2ccccc2C(F)(F)F)CC1 (racemic) [(±)-endo-exo-3.5]", "~3.52"),
    ("O=C(C1CC2CCC1C2)N1CCN(c2ccc(C(F)(F)F)cc2)CC1 (racemic) [(±)-endo-exo-3.2]", "< 3.52"),
]

Query block: Indicate its recorded pIC50; the compound in question is O=C(C1CC2CCC1C2)N1CCN(c2ccc(F)cc2F)CC1 (racemic) [(±)-endo-exo-3.11]
Result block: < 3.52

Query block: Input O=C(C1CC2CCC1C2)N1CCN(c2ccccc2)CC1 (racemic) [(±)-endo-exo-3.1] , output reported pIC50.
Result block: < 3.52

* * *

Target Or Test System: human EAAT3 (Homo sapiens, UniProt P43005)
Construct: expressed in transfected cells
Sequence (P43005 whole entry): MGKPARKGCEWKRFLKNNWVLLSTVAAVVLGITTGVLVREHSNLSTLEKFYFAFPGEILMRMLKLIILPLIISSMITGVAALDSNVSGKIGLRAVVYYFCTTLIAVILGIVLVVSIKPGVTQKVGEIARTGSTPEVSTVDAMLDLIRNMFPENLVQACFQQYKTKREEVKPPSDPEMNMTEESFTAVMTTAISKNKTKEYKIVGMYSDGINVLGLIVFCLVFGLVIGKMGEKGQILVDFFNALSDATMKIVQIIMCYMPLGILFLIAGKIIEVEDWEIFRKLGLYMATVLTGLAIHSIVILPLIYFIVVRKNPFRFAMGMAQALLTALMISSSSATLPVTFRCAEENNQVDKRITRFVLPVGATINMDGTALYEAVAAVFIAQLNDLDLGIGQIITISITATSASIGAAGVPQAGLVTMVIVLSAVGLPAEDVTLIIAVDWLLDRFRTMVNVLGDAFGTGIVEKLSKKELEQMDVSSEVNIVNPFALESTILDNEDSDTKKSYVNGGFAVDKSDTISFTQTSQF
Procedure Details: [3H]-D-aspartate uptake assay at HEK293 cells stably expressing human EAAT3
Format: cell-based
Test Parameters: [3H]-D-aspartate uptake, HEK293 cells stably expressing human EAAT3; analogs 1 and 2.1-2.40 (Table 1); read-out: EAAT3 IC50
pIC50: −log10 of the molar value.
Entries and their measured pIC50 follow.

Query block: Determine from records and report pIC50 for O=C(c1ccc2c(c1)OCO2)N1CCN(c2cccc(C(F)(F)F)c2)CC1 [2.12]
Result block: < 4.00

Query block: Specify reported pIC50 for the compound shown: O=C(OCc1ccccc1)N1CCN(c2cccc(C(F)(F)F)c2)CC1 [2.32]
Result block: < 3.52

Query block: In one line, give reported pIC50 of the entry O=C(C1CCCCC1)N1CCN(c2cccc(C(F)(F)F)c2)CC1 [2.3] .
Result block: ~4.00

Query block: Hello, please tell me recorded pIC50 for this one: O=C([C@@H]1C[C@@H]2CC[C@H]1C2)N1CCN(c2cccc(C(F)(F)F)c2)CC1 (racemic) [(±)-endo-1]
Result block: 5.00

Query block: Please supply the value of reported pIC50 for the item O=S(=O)(c1ccccc1)N1CCN(c2cccc(C(F)(F)F)c2)CC1 [2.33]
Result block: < 3.00

Query block: Identify measured pIC50 associated with CC(C)CCC(=O)N1CCN(c2cccc(C(F)(F)F)c2)CC1 [2.10]
Result block: < 3.52

Query block: Look up pIC50 of O=C(C1CC2CCC1CC2)N1CCN(c2cccc(C(F)(F)F)c2)CC1 (stereo not drawn) [2.1] and report it.
Result block: < 3.52

Query block: Identify the reported pIC50 for the following entry. O=C(c1ccccc1)N1CCN(c2cccc(C(F)(F)F)c2)CC1 [2.11]
Result block: < 4.00

Query block: Give pIC50 for O=C(C1CC2CCC1C2)N1CCN(c2cccc(C(F)(F)F)c2)CC1 (racemic) [(±)-endo-exo-1]
Result block: 4.85

* * *

Target Or Test System: human EAAT1 (Homo sapiens, UniProt P43003)
Construct: expressed in transfected cells
Procedure Details: [3H]-D-aspartate uptake assay at HEK293 cells stably expressing human EAAT1
Format: cell-based
Test Parameters: [3H]-D-aspartate uptake, HEK293 cells stably expressing human EAAT1; analogs 1 and 2.1-2.40 (Table 1); read-out: EAAT1 IC50
Endpoint: IC50 (µM)
Provide the reading as a plain figure in µM.

Query block: Tell me measured IC50 for O=C([C@@H]1C[C@@H]2CC[C@H]1C2)N1CCN(c2cccc(C(F)(F)F)c2)CC1 (racemic) [(±)-endo-1] please.
Result block: 14

Query block: Tell me its IC50 given O=C(C1CC2CCC1C2)N1CCN(c2cccc(C(F)(F)F)c2)CC1 (racemic) [(±)-endo-exo-1] as the entry.
Result block: 14

Query block: Quickly give me recorded IC50 for O=C(C1CC2CCC1C2)N1CCN(c2cccc(C(F)(F)F)c2)CC1 (mixture of isomers) [(±)-exo-1]
Result block: 10

* * *

Target Or Test System: human EAAT1 (Homo sapiens, UniProt P43003)
Construct: expressed in transfected cells
Procedure Details: [3H]-D-aspartate uptake assay at HEK293 cells stably expressing human EAAT1
Assay type: cell-based
Test Parameters: [3H]-D-aspartate uptake, HEK293 cells stably expressing human EAAT1; analogs 1 and 2.1-2.40 (Table 1); read-out: EAAT1 IC50
Endpoint: IC50

Query block: Quote human EAAT1 (Homo sapiens, UniProt P43003) IC50 for entry O=C(c1ccccc1)N1CCN(c2cccc(C(F)(F)F)c2)CC1 .
Result block: ~150 µM

Query block: State IC50 (human EAAT1 (Homo sapiens, UniProt P43003)) of CC(=O)N1CCN(c2cccc(C(F)(F)F)c2)CC1 .
Result block: > 1000 µM

Query block: Provide measured IC50 on human EAAT1 (Homo sapiens, UniProt P43003) for O=C(c1cccc(Oc2ccccc2)c1)N1CCN(c2cccc(C(F)(F)F)c2)CC1 please.
Result block: > 300 µM
